Entry source: the supplement of paper PMC10567573

B1: TRIM35 (parent)
chain: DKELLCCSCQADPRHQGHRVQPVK

variants of: B1; experiment: protein stability index of a GFP-peptide fusion (GPS, HEK-293T) (PSI 1-6); higher = more stable; details: c terminus: a fixed tail appended;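 note: lentivirally expressed fusions sorted by FACS into six bins by GFP to DsRed ratio, PSI derived from sequencing read proportions per bin multiplied by bin number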
// protein stability index lookup, one value per entry
Quick one: just the number, no unit, thanks!

Sample answers from the record:
Tell me its protein stability index given H18P as the entry.
2.6

Tell me its protein stability index given Q21N as the entry.
4

Tell me its protein stability index given R19D as the entry.
4.79

Tell me its protein stability index given L4T as the entry.
4.13

Tell me its protein stability index given C9F as the entry.
3.38

Tell me its protein stability index given H18D as the entry.
3.91

Tell me its protein stability index given L4F as the entry.
3.31

Tell me its protein stability index given A11W as the entry.
2.84

Tell me its protein stability index given D1H as the entry.
3.02

Tell me its protein stability index given H15F as the entry.
3.62

---
Tell me its protein stability index given H15T as the entry.
3.57
